MIC: recorded values
Tested on: Staphylococcus aureus
Assay: Antimicrobial activity against methicillin-resistant Staphylococcus aureus GU 53016 after 7 days by broth microdilution method
Format: functional
Details: GU 53016, 168 h
The response must be a number in µg/mL with no trailing unit.

Solved cases (3 shown):
• CC(CCCCCCCCC(=O)CCCCCCCCC[C@@H](O)CO[C@@H]1O[C@H](CO)[C@@H](O)[C@H](O)[C@H]1O)C(=O)C1=C(O)C(Cc2ccc(O)cc2)=NC1=O (some centres not stated) = 28
• CN[C@H](CC(C)C)C(=O)N[C@H]1C(=O)N[C@@H](CC(N)=O)C(=O)N[C@H]2C(=O)N[C@H]3C(=O)N[C@H](C(=O)N[C@H](C(=O)O)c4cc(O)cc(O)c4-c4cc3ccc4O)[C@H](O)c3ccc(c(Cl)c3)Oc3cc2cc(c3O[C@@H]2O[C@H](CO)[C@@H](O)[C@H](O)[C@H]2O[C@H]2C[C@](C)(N)[C@H](O)[C@H](C)O2)Oc2ccc(cc2Cl)[C@H]1O = 0.38
• CC(CCCCCCCCC(=O)CCCCCCCCC[C@@H](O)CO)C(=O)C1=C(O)[C@H](Cc2ccc(O)cc2)NC1=O (some centres not stated) = 2.8

Consider now this further compound.
Can you look up the measured MIC of CC(CCCCCCCCC(=O)CCCCCCCCCC(O)CO[C@@H]1O[C@H](CO)[C@@H](O)[C@H](O)[C@@H]1O)C(=O)C1=C(O)C(Cc2ccc(O)cc2)NC1=O (some centres not stated) for me?
7.2
